# Tested on: PXR:RXRa (NR concentration 270 nM, RXRa partner concentration 90 nM)
# Assay Comment: PBM binding z-score (relative to random genomic background probes); higher = stronger binding; sequences stand for … in GC…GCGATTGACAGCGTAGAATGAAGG
# PBM binding z-score listing for each entry below
Form rule: numeric answer, no unit written next to it.

Illustrative cases are given below, each with its answer.
Sequence String | PBM binding z-score
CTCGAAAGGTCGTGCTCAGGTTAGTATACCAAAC | 3.94
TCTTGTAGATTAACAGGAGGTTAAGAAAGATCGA | 0.578
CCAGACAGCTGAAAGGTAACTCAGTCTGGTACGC | -0.177

Now, please, on to the next sequence.
Find PBM binding z-score for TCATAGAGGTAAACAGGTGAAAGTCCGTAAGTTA on PXR:RXRa (NR concentration 270 nM, RXRa partner concentration 90 nM) and write it down.
0.625
